Attribute: protein stability index
B1: MYL5 (parent)
chain: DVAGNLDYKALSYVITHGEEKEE

Variants of: B1
Assay: protein stability index of a GFP-peptide fusion (GPS, HEK-293T) (PSI 1-6); higher = more stable;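 also: lentivirally expressed fusions sorted by FACS into six bins by GFP to DsRed ratio, PSI derived from sequencing read proportions per bin multiplied by bin number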
Settings: c terminus: native

Here are 4 variants together with their reported answers.
H17T = 2.12
E22G = 4.27
S12A = 1.72
Y8C = 2.32

Determine from records and report protein stability index for V14R 1.31

Determine from records and report protein stability index for G18D 2.61

Determine from records and report protein stability index for E22M 4.25

Determine from records and report protein stability index for E20N 2.19

Determine from records and report protein stability index for E19N 3.3

Determine from records and report protein stability index for E23V 2.5

Determine from records and report protein stability index for E23Y 3.97

Determine from records and report protein stability index for H17R 2.25
